- Test system: Ipomoea grandifolia
- Assay text: Phytotoxic activity against Ipomoea grandifolia assessed as weight of aerial parts at 5.0 x 10^-4 mol/l measured 21 days after seed sowing under greenhouse trials (reference value: 17.8 mg)
- Type: functional
Activity values for the compounds below.

Compound	Study target	Activity
CCC12OC(C3OOC1O3)C1CCCCC2C1=O (mixture of isomers)	Ipomoea grandifolia	9.4 mg
CC12OC(C)(C3OOC1O3)C1CCCCC2C1=O (mixture of isomers)	Ipomoea grandifolia	6.2 mg
CC(=O)[C@@]12C=C[C@H](O1)[C@H]1CCCC[C@H]2C1=O	Ipomoea grandifolia	10.9 mg
CC[C@@H]1C(=O)[C@@H](CC)[C@@]23CC(C)CCC2=C(C)[C@H]1O3 (stereo partly specified)	Ipomoea grandifolia	6.9 mg
O=C1C2CCCCC1C1OC2C2OOC1O2	Ipomoea grandifolia	9.6 mg
C[C@@H]1CC[C@H]2[C@@H](C)C(=O)O[C@@H]3O[C@@]4(C)CC[C@@H]1[C@]32OO4 [ARTEMISININ]	Ipomoea grandifolia	1.2 mg
